# System: SNB-78
# Measurement Notes: NCI tumour cell line growth inhibition, 48 h
The source made the active and inactive calls. Cut-off read from the data, not from the text of the source: active = GI50 up to about 1.1 µM and inactive = higher.
Metric Name: GI50

A selection of reference data follows.
CC(C)(C)c1nc2c(o1)C(=O)c1ccccc1C2=O
11.5 µM (inactive)
OCC1C2C=CC(O2)[C@H]1CO (stereo partly drawn)
> 100 µM (inactive)

In the following, a different molecule is considered.
Give a short answer stating reported GI50 for O=S(O)c1cc(Cl)cc(Cl)c1O .
> 100 µM (inactive)

----------
# Tested on: KM-20L2
# Measurement Notes: NCI tumour cell line growth inhibition, 48 h
Activity calls are given as the source filed them. Cut-off read from the data, not from the text of the source: active = GI50 up to about 1.1 µM and inactive = higher.
Metric Name: GI50

COc1cc2cc3c4c(cc(OC)c(OC)c4c2cc1OC)CCN3
27.5 µM (inactive)

Please turn your attention to the following entry.
Please supply the value of reported GI50 for the item Cc1ccc(NCCN(C)C)c2c(=O)c3cc(O)ccc3sc12
8.87 µM (inactive)

----------
# Tested on: OVCAR-8
# Measurement Notes: NCI tumour cell line growth inhibition, 48 h
Calls of active or inactive are those of the source. Rule as the data show it: active = GI50 up to about 1.1 µM and inactive = higher.
Metric Name: GI50

Known GI50 results, listed for orientation:
COc1ccc(CNc2nc(NCc3ccc(OC)c(OC)c3)nc(NC3CCCCC3)n2)cc1
7.41 µM (inactive)
COCn1c2ccc(OC(C)=O)cc2c2c(=O)oc(C)nc21
> 100 µM (inactive)
OCC(O)C(OC1OC(CO)C(O)C(O)C1O)c1nn(-c2ccc(Cl)cc2)c2nc3cc(Cl)c(Cl)cc3nc12 (stereo unspecified)
> 100 µM (inactive)

Provide GI50 value for the following molecule: O=c1cnc2cc3ccccc3cc2[nH]1
> 100 µM (inactive)

Answer with reported GI50 of CC(=O)OC12c3ccccc3C(c3ccccc31)C1C(=O)N(c3ccccn3)C(=O)C12 (stereo unspecified)
> 100 µM (inactive)

Provide one value: measured GI50 of Cc1cccc(C)c1NC(=O)C(=O)Cc1nc2ccccc2s1
> 100 µM (inactive)

----------
# Tested on: MDA-N
# Measurement Notes: NCI tumour cell line growth inhibition, 48 h
Active and inactive are the calls of the source. Rule as the data show it: active = GI50 up to about 1.1 µM and inactive = higher.
Just give me one of these, please: active, inactive

Known results for compounds:
CC(C)c1ccc2c(c1)/C(=C1/Nc3ccccc3/C1=N/O)C(=O)N2
inactive
Cc1cnc(-n2c(C)nc3cc(Cl)ccc3c2=O)s1
inactive
CC(=O)Oc1cc2c(cc1OC(C)=O)[C@H]1CC[C@]3(C)[C@@H](OC(C)=O)CC[C@H]3[C@@H]1CC2
active
C=C1CCC(CC[C@@H]2CC[C@]3(OC2)O[C@@]2(O)CC[C@]3(C)OC2(C)C)C(C)(C)[C@H]1C/C=C1/C(=O)OC[C@@H]1O (stereo not given in full)
inactive
COC(=O)c1c2c(cc3c1CC1(C3)Cc3cc4c(c(C(C)=O)c3C1)CCC4)C=CC2 (stereo not given)
inactive

Recorded test call requested for Cc1[nH]n(-c2nc3c(c(=O)[nH]2)CCC3)c(=O)c1CCO
inactive

Hi team, can someone confirm the assay call for O=C(c1ccccc1)c1ccc2[nH]c(-c3c(Cl)c(Cl)c(Cl)c(Cl)c3C(=O)N/N=C/c3ccc(Cl)cc3)nc2c1 ?
inactive

Field: outcome | Entry: CC1(C)/C(=N\NC(N)=O)C2CCC1C2 (stereo not given)
inactive

Can you look up the reported call for O=c1/c(=C/c2ccc([N+](=O)[O-])o2)sc2n1[C@@H](c1ccc3c(c1)OCO3)C=C(c1cc(F)c(Cl)cc1Cl)N=2 for me?
inactive

// outcome(item) with item = C[Si](C)(C)C#CCO[Si](C)(C)C
inactive
